Assay Explanation: Clearance in human liver microsomes
Format: ADME, Microsome
Condition: read-out: CLH
Measured Quantity: CLint scaled (mL/min/kg)

[[record]]
smiles_repr = "O=c1[nH]c(Cc2ccccc2)nc2c1cnn2C1CCCC1"
quantitative_result = 200


Just for reference, ChEMBL document CHEMBL2176956 is where these values come from.
